src = PubChem BioAssay (NCI)

system: M14 melanoma; assay: NCI-60 one-dose screen, 48 h; details: 10 µM unless noted
The panel holds about 83,000 compounds, 20% with a hit somewhere; the sample as a whole holds those more often. Activity calls are given as the source filed them. Rule for the calls: active = growth percent below 10; inactive = the rest.
Hi there, use one of these labels in your reply, thanks! active, inactive

Example cases with answers are listed next.
GET /call?item= O=C1NN(C(=O)c2ccccc2)C(c2ccc(Cl)c(Cl)c2)=C/C1=C\c1ccccc1[N+](=O)[O-] returns the recorded outcome of this test.
active

Try COC(=O)c1ccc2c(c1)nc(-c1ccc(Cl)cc1)n2-c1cc(C(C)(C)C)[nH]n1 next.
inactive

Try COc1ccc(-c2nc3ccccc3n3cccc23)cc1 next.
inactive

Others:
GET /call?item= COc1cc(/C=C/c2cc(/C=C/c3ccc(O)c(OC)c3)n(C(=O)c3ccccc3Br)n2)ccc1O returns the recorded outcome of this test.
active

Try O=C1/C(=C/c2ccccc2)SC(=Nc2ccccc2)N1Nc1ccccc1 next.
active

Try Nc1cc(C(=O)O)cc(C(=O)O)c1 next.
inactive

Try Oc1ccc(-c2nc3ccccc3s2)cc1CN(Cc1ccccn1)Cc1ccccn1 next.
active

Try Fc1ccc(-c2cnc3nonc3n2)c(F)c1 next.
inactive

* * *

test system: MALME-3M melanoma; assay: NCI-60 one-dose screen, 48 h; conditions: 10 µM unless noted
About 83,000 compounds went through this panel and 20% of them were active in at least one assay; those are over-represented in the sample as a whole. Active and inactive are the calls of the source. The calls were made as follows: active = growth percent below 10; inactive = the rest.
Hi there, use one of these labels in your reply, thanks! t (active), f (inactive)

Example cases with answers are listed next.
GET /call?item= O=C(CCl)N1c2ccccc2Oc2ccc3ccccc3c21 returns the recorded outcome of this test.
t

Try O=C(Nc1cccc(N=Cc2c(O)ccc3ccccc23)c1)c1ccccc1 next.
f

Try C=C(C)[C@@H]1CC[C@]2(C(=O)O)CC[C@]3(C)[C@H](CC[C@@H]4[C@@]5(C)C[C@@H](CC#Cc6ccc(C(C)=O)s6)[C@H](O)C(C)(C)[C@@H]5CC[C@]43C)[C@@H]12 next.
f

Others:
GET /call?item= CS(=O)(=O)c1ccc(C(=O)N/N=C/c2ccc3c(c2)OCO3)cc1 returns the recorded outcome of this test.
f

* * *

tested on: NCI-H23 lung; test: NCI-60 one-dose screen, 48 h (100 = growth as untreated, 0 = no growth, -100 = all killed); details: 10 µM unless noted
Compounds without any hit were thinned out: in the full panel of roughly 83,000, 20% have a hit.
quantity_measured: growth (%)
One number for each entry, in %.

Recorded results for 5 compounds are shown here.
Quick check: growth of CCN(CC)c1ccc(/C=N/NC(=O)C[N+](C)(C)C)cc1 ?
99.4

Try CCN(CC)Cc1cc(Nc2ccnc3ccc(OC)cc23)ccc1O next.
56

Try O=C(Nc1ccc(-n2ccc3c(NC(=O)c4ccccc4)nccc32)cc1)c1ccc(N2CCOCC2)c(C(F)(F)F)c1 next.
37.4

Try COc1ccc(-n2c(COc3ccc(F)cc3)n[nH]c2=S)cc1 next.
112

Try CN1C(=O)N(C)C2C1NN=c1s/c(=C\c3ccsc3)c(=O)n12 (centres undefined) next.
59.4

Consider the following items and state reported growth for each.
1. CN1CCC2(CC1)N=C(SCC(=O)Nc1cnc3ccccc3c1)C(c1ccc(Br)cc1)=N2
2. CC(C)=CC[C@@H]1CC2(CC=C(C)C)C(=O)C(OC3(C(=O)c4ccccc4)C(=O)C4(CC=C(C)C)C[C@@H](CC=C(C)C)C(C)(C)C(CC=C(C)C)(C4=O)C3=O)(C(=O)c3ccccc3)C(=O)C(CC=C(C)C)(C2=O)C1(C)C (some centres undefined)
3. CC(C)(C)OC[C@@H]1N=C(c2ccc(Br)cc2)Nc2nc3ccccn3c2C1=O
4. CCCCCCCCCCCC1=NC(C)(C)CN1CC(C)O (centres undefined)

63.5
10.3
71.5
64.1

* * *

test system: OVCAR-3 ovarian; assay: NCI-60 one-dose screen, 48 h (100 = growth as untreated, 0 = no growth, -100 = all killed); conditions: 10 µM unless noted
The panel holds about 83,000 compounds, 20% with a hit somewhere; the sample as a whole holds those more often.
quantity_measured: growth (%)
Give bare numbers, in %.

Recorded results for 6 compounds are shown here.
Quick check: growth of CCC1=CC2CN(C1)Cc1c([nH]c3ccccc13)[C@@](C(=O)OC)(c1cc3c(cc1OC)N(C)[C@H]1[C@@](O)(C(=O)OC)[C@H](OC(C)=O)[C@]4(CC)C=CCN5CC[C@]31[C@@H]54)C2 (some centres undefined) ?
-29.6

Try O=C1Nc2ccc(Br)cc2/C1=N/c1nc(-c2ccccc2)cs1 next.
75

Try N/C(=C\C(=O)n1nc(-c2ccccc2)cc1N)c1ccccc1 next.
20.2

Try CC1=CC(=O)OC1C/C=C(\C)CCC1[C@@]2(C)CCC[C@@](C)(C(=O)O)C2CC[C@@]1(C)O (some centres undefined) next.
56

Try Cc1cc(-c2ccccc2)on1 next.
112

Try COc1cnc2c(c1)C(=O)c1c-2n(CCCNC(C)C)c(=O)c2cc(Cl)ccc12 next.
-78.3

Consider the following items and state reported growth for each.
1. c1ccc(CCn2cccc2)nc1
2. CC1OC(n2c3ccccc3c3c4c(c5c6ccccc6[nH]c5c32)C(=O)N(CCN[C@H]2CCC[C@@H]2N)C4=O)CC(O)C1O (some centres undefined)
3. Oc1ccccc1-c1nnc(COc2ccc(Cl)cc2Cl)o1

1: 101; 2: 52.7; 3: 20.2

* * *

system: HT29 colon; experiment: NCI-60 one-dose screen, 48 h (100 = growth as untreated, 0 = no growth, -100 = all killed); details: 10 µM unless noted
The panel holds about 83,000 compounds, 20% with a hit somewhere; the sample as a whole holds those more often.
quantity_measured: growth (%)
One number for each entry, in %.

Quick check: growth of N#CCCn1cnc2c(N)ncnc21 ?
101

Consider the following items and state reported growth for each.
1. CC(=O)O[C@@H]1CC2C(C)(C)CCCC2(C)C2=C1C(=O)C(C(C)C)=CC2=O (stereo not given in full)
2. COc1cnc2c(c1)C(=O)c1c-2n(CCCN2CCN(C)CC2)c(=O)c2cc(Cl)ccc12
3. CC(=O)Cc1ccccn1
4. CNC(=O)OC1C(O[C@H]2C[C@H]3[C@@H]4CC=C5C[C@@H](O)CC[C@]5(C)[C@H]4CC[C@]3(C)[C@H]2[C@H](C)C(=O)CCC(C)C)OCC(O)C1OC1OCC(O)C(O)C1OC(=O)c1ccc(OC)cc1 (stereo not given in full)
5. COc1cc(NCC(O)CN(CC(C)C)CC(C)C)c2ncccc2c1 (stereo not given)

0.85
-60.6
95.9
14.7
77.9

Consider the following items and state reported growth for each.
1. Cc1cccc(/C=N/n2c(-c3ccc(Cl)cc3)nc3c(Br)cc(Br)cc3c2=O)c1
2. O=C(CCl)N1c2ccccc2Oc2ccc3ccccc3c21
3. CCn1c(Cc2ccccc2Nc2c(Cl)cccc2Cl)nnc1SCC(=O)Nc1ccccc1C(F)(F)F
4. O=P(O)(O)C(O)(Cc1cccnc1)P(=O)(O)O
5. C/C(=N\Nc1ccc([N+](=O)[O-])cn1)c1ccc(N)cc1

[67.9, -49.8, 81.8, 106, 101]

Consider the following items and state reported growth for each.
1. COc1ccccc1CNCCCN1C(=O)c2ccc3c4c(ccc(c24)C1=O)C(=O)N(CCCNCCCN)C3=O
2. CCOc1cc(/C=N\NC(=O)C[N+](C)(C)C)ccc1O
3. COc1ccc(-c2cc(-c3cn(-c4cccc(Cl)c4)nc3-c3ccc(OC)cc3)[nH]c(=S)n2)cc1
4. CCN1C(=O)N(CC)C2C1N=C(SC)N2/N=C/C=C/c1ccccc1OC (stereo not given)
5. COc1ccc2[nH]cc(C3(c4c[nH]c5ccc(OC)cc45)C(=O)Nc4ccc(F)cc43)c2c1
6. CC1=C(/C=C/C(C)=C/C=C(C(=O)O)\C(C)=C\C(=O)O)C(C)(C)CCC1
7. CC(C)CC(=O)C(CCc1ccccn1)C(C)C (stereo not given)

-31.5
105
20.6
3.96
68
96.8
98.3

Consider the following items and state reported growth for each.
1. CC(=O)c1ccc(N2C(=O)c3ccc(Oc4ccccc4)cc3C2=O)cc1
2. CCOC(=O)C(CCCCC(NC(C)=O)(C(=O)OCC)C(=O)OCC)(NC(C)=O)C(=O)OCC

1: 104; 2: 100

* * *

test system: HS 578T breast; assay: NCI-60 one-dose screen, 48 h; details: 10 µM unless noted
About 83,000 compounds went through this panel and 20% of them were active in at least one assay; those are over-represented in the sample as a whole. Activity calls are given as the source filed them. The calls were made as follows: active = growth percent below 10; inactive = the rest.
Hi there, use one of these labels in your reply, thanks! true (1) = active, false (0) = inactive

Example cases with answers are listed next.
GET /call?item= CCCCCCCCCCCCCCCCCC1=NCCN1CCO returns the recorded outcome of this test.
false (0)

Try O=C1OC(/C=C/c2ccccc2)=NC/1=C/c1ccccc1[N+](=O)[O-] next.
false (0)

Try COC(=O)OC1C(O[C@H]2C[C@H]3[C@@H]4CC=C5C[C@@H](O)CC[C@]5(C)[C@H]4CC[C@]3(C)[C@H]2[C@H](C)C(=O)CCC(C)C)OCC(O)C1OC1OCC(O)C(O)C1OC(=O)c1ccc(OC)cc1 (stereo not given in full) next.
true (1)

Try CCCCCCCCCCCCCCCCCC(=O)OCCCCCCCCCCCCC next.
false (0)

Try COC1(OC)C2(Cl)CCC1(Cl)C(Cl)=C2Cl next.
false (0)

Others:
GET /call?item= COc1cc(Nc2ncccc2/C=C/C(=O)c2cc(OC)c(OC)c(OC)c2)cc(OC)c1OC returns the recorded outcome of this test.
false (0)

Try CCOC(=O)c1ccc(NC(=O)CSC(N)=O)cc1 next.
false (0)

Try CCN(CC)c1ccc2c(cc1=O)[C@@H](NC(C)=O)CCc1cc(OC)c(OC)c(OC)c1-2 next.
false (0)

Try CCN(CC)CCCC(C)Nc1ccnc2ccc(Oc3ccccc3)cc12 (stereo not given) next.
false (0)

Try O=C1/C(=C/c2cc(F)cc(F)c2)Cc2cc(F)cc(F)c21 next.
false (0)

Try COc1ccc(CC2c3cc(OC)c(OC)cc3CC[N+]2(C)CCC(=O)OCCCCCOC(=O)CC[N+]2(C)CCc3cc(OC)c(OC)cc3C2Cc2ccc(OC)c(OC)c2)cc1OC (stereo not given) next.
false (0)
